test: qHTS of pediatric cancer cell lines to identify multiple opportunities for drug repurposing: Confirmatory screen for BT-37 cells (AID 1347117); settings: BT-37 pediatric cancer cells, viability; series mostly up to 45.9 µM;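 note: viability measured after 48 h of compound exposure; nearly all actives have a fitted effect of over 55% in size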
Results filed as inconclusive are left out. Activity calls are given as the source filed them. Calls come from the whole dose curve; as a rule, active = well fitted cell-killing curve with a large enough effect; inconclusive = small, poorly fitted or top-dose-only effect; inactive = no such curve, though single readings can be large or run the other way.
Choose the fitting class; nothing outside active, inactive is accepted.

These recorded examples may help you get a feel for the data.
C=C(c1ccc(C(=O)O)cc1)c1cc2c(cc1C)C(C)(C)CCC2(C)C: inactive
CCN(CC)C(=S)SSC(=S)N(CC)CC: active

Just curious, what result did CN(C)c1ccc2nc3ccc(=[N+](C)C)cc-3sc2c1 get here?
active

Name the outcome recorded for Nc1nc(Cl)nc2c1ncn2[C@H]1C[C@H](O)[C@@H](CO)O1 in the assay.
active

Given CCCOc1ccc2nc(NC(=O)OC)[nH]c2c1 , state the outcome it received in this test.
active
